# TARGET_OF_ASSAY: HLA-A*02:01 (Homo sapiens, UniProt P04439, D140Y/D185E/D98H/E176V/E277Q/G131W/G231S/I119V/I121R/I166T/I218V/L300P/L318F/N151K/N90K/P208A/P217A/Q86G/Q94H/R138H/R169H/T345S)
# Construct: made in house
# METHOD: MHC binding assay: UV-ligand exchange with β2m ELISA (peptide exchange yield)
# STATED_CONDITIONS: binding to HLA-A*02:01 evaluated by peptide exchange yield (UV-ligand exchange, β2m ELISA)
MEASURED_PROPERTY: Peptide exchange

SUBSTANCE | Peptide exchange
204 (SEWGSPHAAVP; listed as Homo sapiens) [compound 204] | +++ (≧50 = +++)
29 (KMISAIPTL; listed as Homo sapiens) [compound 29] | ++ (≧20% = ++)
180 (RLYEEEIRI; listed as Homo sapiens) [compound 180] | +++ (≧50 = +++)
114 (LLFPSDVQTL; listed as Homo sapiens) [compound 114] | ++ (≧20% = ++)
107 (RVLPGQAVTGV; listed as Homo sapiens) [compound 107] | ++ (≧20% = ++)
18 (KTASINQNV; listed as Homo sapiens) [compound 18] | ++ (≧20% = ++)

substance 247 (NLLIDDKGTIKL; listed as Homo sapiens) [compound 247] , Peptide exchange observed: ++ (≧20% = ++)

The substance listed as 278 (VLEDKVLSV; listed as Homo sapiens) [compound 278] shows Peptide exchange equal to +++ (≧50 = +++)

The reported Peptide exchange of the substance 12 (RLLDPKTIFL; listed as Homo sapiens) [compound 12] was +++ (≧50 = +++)

Recorded result, 64 (SLYAGSNNQV; listed as Homo sapiens) [compound 64] , Peptide exchange: ++ (≧20% = ++)

The recorded Peptide exchange for entry 252 (SLMEKNQSL; listed as Homo sapiens) [compound 252] equals ++ (≧20% = ++)

Form: substance = 7 (ALLQALMEL; listed as Homo sapiens) [compound 7] ; Peptide exchange = +++ (≧50 = +++)

Peptide exchange measured on 125 (AALEVLAEV; listed as Homo sapiens) [compound 125] = +++ (≧50 = +++)

Notebook: 163 (GLEERLYTA; listed as Homo sapiens) [compound 163] , Peptide exchange read as ++ (≧20% = ++)

Peptide exchange reading for 36 (TVLQELINV; listed as Homo sapiens) [compound 36] : +++ (≧50 = +++)
